experiment.summary: qHTS for Inhibitors of human tyrosyl-DNA phosphodiesterase 1 (TDP1): qHTS in cells in presence of CPT; further: nearly all actives have a fitted effect of over 55% in size
protocol.conditions: chicken DT40 Tdp1-/-;hTDP1 cells + 20 nM CPT, ATP luminescence, 48 h; series mostly up to 46.2 µM
Screen size: about 420,000 compounds; about 50,000 (12%) were called active. Not shown: some 26% with an inconclusive outcome. The call rests on the fitted dose curve; in most records, active means well fitted inhibition curve with a large enough effect; inconclusive means small, poorly fitted or top-dose-only effect; inactive means flat fitted curve, though single readings scatter. This excerpt belongs to a sample that is enriched for actives.
Pick one: active, inactive

Test call for this compound, please: CC(C)CC(N=C1NC(C)(C)Cc2ccccc21)C(=O)O (stereo unspecified)
inactive

Test call for this compound, please: O=C(Nc1ccccc1)c1ccco1
inactive

Test call for this compound, please: Cc1ccc(OCCOCCOc2ccc(Br)cc2/C=N\NC(=O)c2ccncc2)cc1
active

Test call for this compound, please: CCOc1cc(/C=N/NC(=O)c2ccncc2)cc(Br)c1O
inactive

Test call for this compound, please: Cc1ccc(NS(=O)(=O)c2ccc(C(C)(C)C)cc2)cn1
inactive

Test call for this compound, please: COCCNC(=O)C1C(=O)Nc2ccccc2C(=O)N1c1ccc2c(c1)OCCO2 (stereo unspecified)
inactive

Test call for this compound, please: Cc1ccc(OCC(=O)Nc2ccc(S(=O)(=O)Nc3ccccn3)cc2)cc1
inactive

Test call for this compound, please: CC1CCN(C(=O)C2CCN(S(=O)(=O)N3CCC4(CC3)OCCO4)CC2)CC1
inactive

Test call for this compound, please: COc1cccc(-c2nc(S(=O)(=O)c3ccc(C)cc3)c(NCc3ccccc3)o2)c1
active

Test call for this compound, please: Cc1ccc(S(=O)(=O)Oc2ccc(/C=N/NC(=O)c3ccncc3)cc2)cc1
inactive

Test call for this compound, please: CC(=O)Nc1ccc(S(=O)(=O)NC2(C(F)(F)F)C(=O)NC(C)=C2C#N)cc1 (stereo unspecified)
inactive

====

experiment.summary: qHTS for Inhibitors of human tyrosyl-DNA phosphodiesterase 1 (TDP1): qHTS in cells in presence of CPT; further: nearly all actives have a fitted effect of over 55% in size; further: potency means the concentration at half of the fitted maximal effect
protocol.conditions: chicken DT40 Tdp1-/-;hTDP1 cells + 20 nM CPT, ATP luminescence, 48 h; series mostly up to 46.2 µM
The whole screen tested about 420,000 compounds, of which about 50,000 (12%) were called active. About 26% were inconclusive and are not listed. Only a selection was taken, and actives are over-represented in it overall.
measurement.name: Potency

Here is how some compounds turned out for Potency.
# compound, measurement.name, assay.value
rows = [
    ("CCCNC(=O)c1cc(C2CCCCN2S(=O)(=O)c2cn(C)cn2)on1 (stereo unspecified)", "Potency", "inactive"),
    ("Cc1nc2nc(SCC(=O)NCc3ccco3)nn2c(C)c1Cc1ccccc1", "Potency", "inactive"),
    ("CC(=O)C[C@@H]1OC[C@H](CO)N1S(=O)(=O)c1ccc(C)cc1", "Potency", "inactive"),
    ("CCN(CC)C(=O)CSc1nc2ccsc2c(=O)n1Cc1ccccc1Cl", "Potency", "18.4 µM (active)"),
    ("Cc1cccc(Cc2c(C)nc3nc(SCc4ccccc4Cl)nn3c2C)c1", "Potency", "23.1 µM (active)"),
]

Request the reported Potency associated with CCOC(=O)n1c(SCC(=O)N(CC)CC)nc2ccccc21
inactive

====

experiment.summary: qHTS for Inhibitors of human tyrosyl-DNA phosphodiesterase 1 (TDP1): qHTS in cells in presence of CPT; further: nearly all actives have a fitted effect of over 55% in size
protocol.conditions: chicken DT40 Tdp1-/-;hTDP1 cells + 20 nM CPT, ATP luminescence, 48 h; series mostly up to 46.2 µM
Procedure: Human tyrosyl-DNA phosphodiesterase 1 (TDP1) is a novel repair gene, and we propose to use it as a new target for anticancer drug development. […] For the primary screen, Tdp1-/-;hTDP1 cells will be exposed to small molecules in the presence or absence of CPT, and their growth kinetics will be evaluated after 48 hours by measuring ATP activity. […] The hit compounds will then be evaluated in the presence or absence of CPT using Tdp1-/- cells. […]
About 50,000 (12%) of roughly 420,000 compounds were called active. Roughly 26% stayed inconclusive and do not appear here. Calls come from the whole dose curve; as a rule, active = well fitted inhibition curve with a large enough effect; inconclusive = small, poorly fitted or top-dose-only effect; inactive = flat fitted curve, though single readings scatter. The sample as a whole holds a higher share of actives than the screen did.
Pick one: T for active, F for inactive

Test call for this compound, please: C(=Nc1ccc(/C=C/c2ccnc3ccccc23)cc1)c1cc2c3c(c1)CCCN3CCC2
T

Test call for this compound, please: COc1ccc(NC(=O)CSc2nc(SC)ns2)c(OC)c1
F

Test call for this compound, please: O=C(CN1C(=O)COc2ccc(Cl)cc21)Nc1ccc(N2CCOCC2)cc1
F

Test call for this compound, please: CO[C@@H]1CN(C)C(=O)c2cc(NC(=O)C3CC3)ccc2OC[C@H](C)N(C(=O)CN2CCOCC2)C[C@@H]1C
F

Test call for this compound, please: Cc1cccc(C)c1NC(=O)CN(C)C(=O)CCC(=O)c1ccccc1
F

Test call for this compound, please: Cc1ccc(S(=O)(=O)NCC2CCC(C(=O)N3CCOCC3)CC2)cc1 (stereo unspecified)
F

Test call for this compound, please: CSc1ccc(S(=O)(=O)NCC(=O)OCC(=O)NC2(C#N)CCCCC2)cc1[N+](=O)[O-]
F

Test call for this compound, please: Cc1cccc(C)c1NC(=O)C(c1ccccc1)N1CC(=O)Nc2ccccc21 (stereo unspecified)
F

Test call for this compound, please: Cc1cc(=O)oc2cc(OCC(=O)N3CCN(c4ccc(F)cc4)CC3)c(Cl)cc12
F

Test call for this compound, please: CC(=O)NC12CC3CC(C1)CC(C(=O)N1CCN(S(=O)(=O)c4cccs4)CC1)(C3)C2
F

Test call for this compound, please: Cc1cccc(C)c1NC(=O)C(Cl)C(=O)c1ccccc1 (stereo unspecified)
T

Test call for this compound, please: O=C(COC(=O)c1ccc(O)cc1O)NNC(=O)c1cccs1
F

Test call for this compound, please: COc1cc(/C=C(\C#N)c2nc3ccccc3[nH]2)ccc1O
T

Test call for this compound, please: COc1cc(C(=O)OCC(=O)N(CC(C)C)C2CCS(=O)(=O)C2)ccc1OCC(C)C (stereo unspecified)
F

Test call for this compound, please: CN(C(=O)CC1C(=O)NCCN1Cc1ccc2ccccc2c1)C1CCOCC1 (stereo unspecified)
F

Test call for this compound, please: Cc1cccc(-n2ncc(Cl)c(Cl)c2=O)c1
T

Test call for this compound, please: CC(C)c1ccc(NC(=O)c2cc(S(=O)(=O)N3CCc4ccccc4C3)ccc2F)cc1
F

Test call for this compound, please: Cc1ccc(C=O)cc1Cl
F

Test call for this compound, please: C=CCN1C(=O)c2ccc(C(=O)N3CCC(C(=O)OCC)CC3)cc2C1=O
F

Test call for this compound, please: CCCCC(CCCC)c1ccc(C=Nc2ccc(/C=C/c3ccnc4ccccc34)cc2)cc1
T

Test call for this compound, please: CN1CCN(c2ccc(CNS(=O)(=O)c3cccc(F)c3)cc2)CC1
F

Attribution: PubChem BioAssay AID686979
